target: type 2 IP3R from nuclei of HepG2 cells (Homo sapiens); construct: biophysical properties of native type 2 IP3R isolated from cells; endogenous in cells; test: Planar lipid bilayer single channel recording of native type 2 IP3R; conditions: native channel, data not shown; read-out: half maximal activation, dependence on cytosolic IP3 concentration
Sequence (Q14571 whole entry): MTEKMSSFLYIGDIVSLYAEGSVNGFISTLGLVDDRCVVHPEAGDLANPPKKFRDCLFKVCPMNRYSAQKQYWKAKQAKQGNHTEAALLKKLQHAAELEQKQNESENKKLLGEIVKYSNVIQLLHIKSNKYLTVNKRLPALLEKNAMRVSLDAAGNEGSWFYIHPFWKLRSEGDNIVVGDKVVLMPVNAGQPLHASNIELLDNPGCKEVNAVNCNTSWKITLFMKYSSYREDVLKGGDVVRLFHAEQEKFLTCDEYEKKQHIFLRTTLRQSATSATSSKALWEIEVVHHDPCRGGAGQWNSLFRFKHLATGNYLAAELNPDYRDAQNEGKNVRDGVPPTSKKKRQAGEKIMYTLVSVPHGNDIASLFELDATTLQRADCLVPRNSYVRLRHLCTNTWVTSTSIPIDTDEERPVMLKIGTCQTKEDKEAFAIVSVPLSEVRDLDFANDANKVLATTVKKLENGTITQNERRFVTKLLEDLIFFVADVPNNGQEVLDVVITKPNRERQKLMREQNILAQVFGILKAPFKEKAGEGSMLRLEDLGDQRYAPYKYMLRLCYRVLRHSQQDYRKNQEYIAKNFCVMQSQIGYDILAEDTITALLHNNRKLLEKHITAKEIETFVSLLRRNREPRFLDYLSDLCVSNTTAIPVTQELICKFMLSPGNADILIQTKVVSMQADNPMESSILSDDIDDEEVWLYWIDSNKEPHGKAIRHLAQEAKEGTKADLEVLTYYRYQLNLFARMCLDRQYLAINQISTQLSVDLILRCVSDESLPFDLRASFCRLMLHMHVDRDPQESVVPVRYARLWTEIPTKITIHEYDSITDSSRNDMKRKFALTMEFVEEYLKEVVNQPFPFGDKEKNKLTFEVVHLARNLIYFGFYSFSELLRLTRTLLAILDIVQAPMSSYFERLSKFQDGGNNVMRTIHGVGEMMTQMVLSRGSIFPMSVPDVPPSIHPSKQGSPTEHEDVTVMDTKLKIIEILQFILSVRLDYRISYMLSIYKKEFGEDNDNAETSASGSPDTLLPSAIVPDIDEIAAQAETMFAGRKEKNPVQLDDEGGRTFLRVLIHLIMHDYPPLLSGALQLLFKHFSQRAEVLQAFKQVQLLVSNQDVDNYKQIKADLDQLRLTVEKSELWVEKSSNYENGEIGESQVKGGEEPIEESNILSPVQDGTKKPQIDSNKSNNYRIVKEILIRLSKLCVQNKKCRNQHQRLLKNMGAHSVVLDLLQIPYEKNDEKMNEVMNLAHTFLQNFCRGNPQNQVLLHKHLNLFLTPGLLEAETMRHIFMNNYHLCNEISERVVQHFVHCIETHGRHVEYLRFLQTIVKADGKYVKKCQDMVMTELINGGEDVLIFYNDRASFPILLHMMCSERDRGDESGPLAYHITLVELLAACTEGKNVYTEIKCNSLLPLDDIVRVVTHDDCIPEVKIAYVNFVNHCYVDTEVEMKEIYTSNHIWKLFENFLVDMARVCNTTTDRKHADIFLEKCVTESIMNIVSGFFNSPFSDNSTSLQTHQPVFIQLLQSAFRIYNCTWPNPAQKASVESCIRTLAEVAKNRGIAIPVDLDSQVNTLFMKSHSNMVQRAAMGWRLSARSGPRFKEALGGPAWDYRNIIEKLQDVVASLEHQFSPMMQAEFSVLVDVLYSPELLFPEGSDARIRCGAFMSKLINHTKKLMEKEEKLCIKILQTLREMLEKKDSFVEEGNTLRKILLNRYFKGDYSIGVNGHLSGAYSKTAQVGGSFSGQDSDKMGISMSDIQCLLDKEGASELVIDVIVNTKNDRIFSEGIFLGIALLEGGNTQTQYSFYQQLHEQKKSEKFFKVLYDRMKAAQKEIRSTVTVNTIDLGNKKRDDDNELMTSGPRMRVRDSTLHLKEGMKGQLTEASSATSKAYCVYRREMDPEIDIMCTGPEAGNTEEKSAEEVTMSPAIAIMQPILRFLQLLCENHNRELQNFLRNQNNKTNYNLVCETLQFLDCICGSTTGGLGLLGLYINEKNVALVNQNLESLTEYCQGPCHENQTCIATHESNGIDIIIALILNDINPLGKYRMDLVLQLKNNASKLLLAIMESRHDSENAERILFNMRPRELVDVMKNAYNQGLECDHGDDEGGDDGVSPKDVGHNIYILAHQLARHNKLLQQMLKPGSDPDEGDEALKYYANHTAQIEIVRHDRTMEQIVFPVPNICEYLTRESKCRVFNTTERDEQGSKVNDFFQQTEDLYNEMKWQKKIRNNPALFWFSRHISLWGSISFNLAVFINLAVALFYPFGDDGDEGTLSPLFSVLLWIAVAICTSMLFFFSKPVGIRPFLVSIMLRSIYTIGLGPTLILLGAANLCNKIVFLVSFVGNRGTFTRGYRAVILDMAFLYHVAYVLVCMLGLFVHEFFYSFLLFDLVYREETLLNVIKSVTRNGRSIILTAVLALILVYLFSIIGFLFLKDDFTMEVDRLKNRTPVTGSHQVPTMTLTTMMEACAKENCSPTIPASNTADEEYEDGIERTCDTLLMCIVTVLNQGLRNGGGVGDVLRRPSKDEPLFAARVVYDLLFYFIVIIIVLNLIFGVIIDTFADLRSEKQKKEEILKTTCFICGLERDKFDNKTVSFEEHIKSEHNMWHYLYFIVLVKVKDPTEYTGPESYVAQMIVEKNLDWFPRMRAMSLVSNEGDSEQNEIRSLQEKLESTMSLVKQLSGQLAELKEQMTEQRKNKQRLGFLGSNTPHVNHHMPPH
measured.attribute: pEC50
// pEC50 is dimensionless: -log10 of concentration (M)

Item O=P(O)(O)O[C@@H]1[C@H](O)[C@H](O)[C@@H](OP(=O)(O)O)[C@H](OP(=O)(O)O)[C@H]1O [IP3, inositol 1,4,5-trisphosphate] has what recorded pEC50?
7.19
